Answer each item with its documented % main peak area (after 4 h incubation in mouse plasma).
Assay type: in vitro ADME, mouse
Write down the numeric answer in % and omit the unit.

Requested read-out: % main peak area (after 4 h incubation in mouse plasma). Entry: CCN1\C(=C/C=C/C=C/C2=[N+](CCCCCC(=O)NCCOCCOCCOCCNC(=O)COCC(=O)NCCCC[C@@H]3NC(=O)CSC[C@@H](C(=O)NCCOCCOCCOCCNC(=O)COCC(N)=O)NC(=O)[C@H](Cc4ccccc4)NC(=O)[C@@H]4CSSC[C@H](NC3=O)C(=O)N[C@@H](CCCNC(=N)N)C(=O)NCC(=O)N[C@@H](CC(=O)O)C(=O)N4)c3ccc(S(=O)(=O)[O-])cc3C2(C)C)C(C)(C)c2cc(S(=O)(=O)O)ccc21 [Compound 8]
93

Requested read-out: % main peak area (after 4 h incubation in mouse plasma). Entry: CC1(CCCCS(=O)(=O)[O-])C(/C=C/C=C/C=C2\N(CCCCS(=O)(=O)O)c3c(F)c(F)c(F)c(F)c3C2(C)CCCCS(=O)(=O)O)=[N+](CCCCCC(=O)NCCCC[C@@H]2NC(=O)CSC[C@@H](C(=O)NCCOCCOCCOCCNC(=O)COCC(N)=O)NC(=O)[C@H](Cc3ccccc3)NC(=O)[C@@H]3CSSC[C@H](NC2=O)C(=O)N[C@@H](CCCNC(=N)N)C(=O)NCC(=O)N[C@@H](CC(=O)O)C(=O)N3)c2c(F)c(F)c(F)c(F)c21 (stereo partly drawn) [Compound 7]
70

Requested read-out: % main peak area (after 4 h incubation in mouse plasma). Entry: CC1(C)C(/C=C/C=C/C=C2/N(CCCS(=O)(=O)O)c3ccc(S(=O)(=O)O)cc3C2(C)CCCCCC(=O)NCCCC[C@@H]2NC(=O)CSC[C@@H](C(=O)NCCOCCOCCOCCNC(=O)COCC(N)=O)NC(=O)[C@H](Cc3ccccc3)NC(=O)[C@@H]3CSSC[C@H](NC2=O)C(=O)N[C@@H](CCCNC(=N)N)C(=O)NCC(=O)N[C@@H](CC(=O)O)C(=O)N3)=[N+](CCCS(=O)(=O)O)c2ccc(S(=O)(=O)O)cc21 (stereo partly drawn) [Compound 6, RGD-Alexa 647 Dye Conjugate]
100

----------
System: αVβ3 receptor (Homo sapiens, UniProt P05106+P06756)
Construct: endogenous in cells
Procedure Summary: Competition assay using 125I-echistatin on EA-Hy926 membranes
Condition: competition with 125I-Echistatin, EA-Hy926 membranes
Bridge positions count the residues as written; N and C are the ends. Peptide text beside a SMILES is read from it. * marks the point of attachment. X3 = CC[N+]1=C(/C=C/C=C/C=C2/N(CCCCCC(=O)*)c3ccc(S(=O)(=O)O)cc3C2(C)C)C(C)(C)c2cc(S(=O)(=O)[O-])ccc21; X1 = C[N+]1=C(/C=C/C=C/C=C2/N(CCCCCC(=O)*)c3ccccc3C2(C)C)C(C)(C)c2cc(S(=O)(=O)[O-])ccc21; X2 = NC(=O)COCC(=O)NCCOCCOCCOCCN*
Measurement Name: Ki (nM)
Write down the numeric answer in nM and omit the unit.

Lab request: please report Ki under test system αVβ3 receptor (Homo sapiens, UniProt P05106+P06756) for CC1(C)C(/C=C/C=C/C=C2/N(CCCS(=O)(=O)O)c3ccc(S(=O)(=O)O)cc3C2(C)CCCCCC(=O)NCCCC[C@@H]2NC(=O)CSC[C@@H](C(=O)NCCOCCOCCOCCNC(=O)COCC(N)=O)NC(=O)[C@H](Cc3ccccc3)NC(=O)[C@@H]3CSSC[C@H](NC2=O)C(=O)N[C@@H](CCCNC(=N)N)C(=O)NCC(=O)N[C@@H](CC(=O)O)C(=O)N3)=[N+](CCCS(=O)(=O)O)c2ccc(S(=O)(=O)O)cc21 (some centres unmarked) [Compound 6, RGD-Alexa 647 Dye Conjugate]
1.6

Lab request: please report Ki under test system αVβ3 receptor (Homo sapiens, UniProt P05106+P06756) for CC1(CCCCS(=O)(=O)[O-])C(/C=C/C=C/C=C2\N(CCCCS(=O)(=O)O)c3c(F)c(F)c(F)c(F)c3C2(C)CCCCS(=O)(=O)O)=[N+](CCCCCC(=O)NCCCC[C@@H]2NC(=O)CSC[C@@H](C(=O)NCCOCCOCCOCCNC(=O)COCC(N)=O)NC(=O)[C@H](Cc3ccccc3)NC(=O)[C@@H]3CSSC[C@H](NC2=O)C(=O)N[C@@H](CCCNC(=N)N)C(=O)NCC(=O)N[C@@H](CC(=O)O)C(=O)N3)c2c(F)c(F)c(F)c(F)c21 (some centres unmarked)
7.4

Lab request: please report Ki under test system αVβ3 receptor (Homo sapiens, UniProt P05106+P06756) for CC1(CCCCS(=O)(=O)O)C(/C=C/C=C/C=C2/N(CCCCCC(=O)NCCCC[C@@H]3NC(=O)CSC[C@@H](C(=O)NCCOCCOCCOCCNC(=O)COCC(N)=O)NC(=O)[C@H](Cc4ccccc4)NC(=O)[C@@H]4CSSC[C@H](NC3=O)C(=O)N[C@@H](CCCNC(=N)N)C(=O)NCC(=O)N[C@@H](CC(=O)O)C(=O)N4)c3ccc(S(=O)(=O)O)cc3C2(C)C)=[N+](CCCCS(=O)(=O)O)c2ccc(S(=O)(=O)O)cc21 (some centres unmarked) [Compound 4, RGD-Cy5** Dye Conjugate]
1.8

Lab request: please report Ki under test system αVβ3 receptor (Homo sapiens, UniProt P05106+P06756) for CC[N+]1=C(/C=C/C=C/C=C2/N(CCCCCC(=O)NCCCC[C@@H]3NC(=O)CSC[C@@H](C(=O)NCCOCCOCCOCCNC(=O)COCC(N)=O)NC(=O)[C@H](Cc4ccccc4)NC(=O)[C@@H]4CSSC[C@H](NC3=O)C(=O)N[C@@H](CCCNC(=N)N)C(=O)NCC(=O)N[C@@H](CC(=O)O)C(=O)N4)c3ccc(S(=O)(=O)O)cc3C2(C)C)C(C)(C)c2cc(S(=O)(=O)[O-])ccc21 [Compound 1, RGD-[Cy5(2)] Dye Conjugate] ({CH2CO}-K(X3)CRGDCFC-X2; disulfide 2-6; thioether N-8)
1.9

Lab request: please report Ki under test system αVβ3 receptor (Homo sapiens, UniProt P05106+P06756) for C[N+]1=C(/C=C/C=C/C=C2/N(CCCCCC(=O)NCCCC[C@@H]3NC(=O)CSC[C@@H](C(=O)NCCOCCOCCOCCNC(=O)COCC(N)=O)NC(=O)[C@H](Cc4ccccc4)NC(=O)[C@@H]4CSSC[C@H](NC3=O)C(=O)N[C@@H](CCCNC(=N)N)C(=O)NCC(=O)N[C@@H](CC(=O)O)C(=O)N4)c3ccccc3C2(C)C)C(C)(C)c2cc(S(=O)(=O)[O-])ccc21 [Compound 3, RGD-Cy5(1)) Dye Conjugate] ({CH2CO}-K(X1)CRGDCFC-X2; disulfide 2-6; thioether N-8)
2.6
